System: LoVo cells
Test: MTT based cell viability assay on LoVo cells
Details: Homo sapiens, LoVo, 72 h, read-out: IC50, growth inhibition on LoVo cells
pIC50: −log10 of the molar value.
// values below are reported pIC50
MEASURED_PARAMETER: pIC50

# MOLECULE, MEASURED_PARAMETER, TEST_RESULT
measured = [
    ("Cc1cc(Nc2ncc3c(=O)n(-c4c(Cl)cccc4Cl)n4ccnc4c3n2)cc(F)c1N1CCN(C)CC1 [Example 28]", "pIC50", 6.57),
    ("C[C@@H]1CN(c2ccc(Nc3ncc4c(=O)n(-c5c(Cl)cccc5Cl)n5ccnc5c4n3)cc2)C[C@H](C)N1C [Example 30]", "pIC50", 6.11),
    ("Cc1cc(Nc2ncc3c(=O)n(-c4c(Cl)cccc4Cl)n4ccnc4c3n2)cc2c1CCN(C)C2 [Example 44]", "pIC50", 6.43),
    ("Cc1cc(Nc2ncc3c(=O)n(-c4c(Cl)cccc4Cl)n4ccnc4c3n2)cc(F)c1N1CCC(N(C)C)CC1 [Example 37]", "pIC50", 6.54),
    ("Cc1cc(Nc2ncc3c(=O)n(-c4c(Cl)cccc4Cl)n4ccnc4c3n2)cc(Cl)c1N1CCN(C)CC1 [Example 29]", "pIC50", 6.57),
    ("CN1CCN(c2ccc(Nc3ncc4c(=O)n(-c5c(Cl)cccc5Cl)n5ccnc5c4n3)cc2)CC1 [Example 1]", "pIC50", 6.28),
    ("Cc1cc(Nc2ncc3c(=O)n(-c4c(Cl)cccc4Cl)n4ccnc4c3n2)ccc1N1CCNCC1 [Example 26]", "pIC50", 6.70),
    ("Cc1cc(Nc2ncc3c(=O)n(-c4c(Cl)cccc4Cl)n4ccnc4c3n2)ccc1N1C[C@@H](C)N(C)[C@@H](C)C1 [Example 33]", "pIC50", 6.40),
    ("Cc1cc(Nc2ncc3c(=O)n(-c4c(Cl)cccc4Cl)n4ccnc4c3n2)ccc1N1CCC(N(C)C)CC1 [Example 36]", "pIC50", 6.69),
    ("C[C@@H]1CN(c2ccc(Nc3ncc4c(=O)n(-c5c(Cl)cccc5Cl)n5ccnc5c4n3)cc2F)C[C@H](C)N1C [Example 31]", "pIC50", 6.09),
    ("Cc1cc(Nc2ncc3c(=O)n(-c4c(Cl)cccc4Cl)n4ccnc4c3n2)ccc1C1CCN(C)CC1 [Example 41]", "pIC50", 6.67),
    ("Cc1cc(Nc2ncc3c(=O)n(-c4c(Cl)cccc4Cl)n4ccnc4c3n2)cc(C)c1N1CCN(C)CC1 [Example 4]", "pIC50", 6.47),
    ("C[C@@H]1CN(c2ccc(Nc3ncc4c(=O)n(-c5c(Cl)cccc5Cl)n5ccnc5c4n3)cc2Cl)C[C@H](C)N1C [Example 32]", "pIC50", 6.17),
    ("COc1cc(Nc2ncc3c(=O)n(-c4c(Cl)cccc4Cl)n4ccnc4c3n2)cc(Cl)c1N1CCC(N(C)C)CC1 [Example 38]", "pIC50", 6.38),
    ("Cc1cc(Nc2ncc3c(=O)n(-c4c(Cl)cccc4Cl)n4ccnc4c3n2)ccc1N1C[C@@H](C)N(C(C)C)[C@@H](C)C1 [Example 34]", "pIC50", 6.63),
    ("Cc1cc(Nc2ncc3c(=O)n(-c4c(Cl)cccc4Cl)n4ccnc4c3n2)ccc1N1CCN(C)CC1 [Example 3]", "pIC50", 6.63),
    ("CN(C)C1CCN(c2ccc(Nc3ncc4c(=O)n(-c5c(Cl)cccc5Cl)n5ccnc5c4n3)cc2Cl)CC1 [Example 35]", "pIC50", 6.52),
    ("CN1CCN(c2ccc(Nc3ncc4c(=O)n(-c5c(Cl)cccc5Cl)n5ccnc5c4n3)cc2Cl)CC1 [Example 27]", "pIC50", 6.43),
]

###

// values below are reported Inh. (%) of Wee1 kinase
Biological target: UniProt P30291
Test: Wee1 kinase (h) detection method, [γ-33P]-ATP filter assay
Type: biochemical
Details: C 0.01 μm; 10 μM ATP; 40 minutes at room temperature
MEASURED_PARAMETER: Inh. (%) of Wee1 kinase

# ENTRY_SMILES, TESTED_TARGET, TEST_RESULT
rows = [
    ("Cc1cc(Nc2ncc3c(=O)n(-c4c(C)cccc4Cl)n4ccnc4c3n2)cc(Cl)c1N1CCN(C)CC1", "UniProt P30291", 0),
    ("Cc1cc(Nc2ncc3c(=O)n(-c4c(C)cccc4Cl)n4ccnc4c3n2)ccc1N1CCN(C)CC1", "UniProt P30291", 22),
    ("Cc1cn2c(n1)c1nc(Nc3ccc(N4CCN(C)CC4)c(Cl)c3)ncc1c(=O)n2-c1c(Cl)cccc1Cl", "UniProt P30291", 12),
    ("Cc1cc(Nc2ncc3c(=O)n(-c4c(Cl)cccc4Cl)n4ccnc4c3n2)ccc1N1CCC(N(C)C)CC1", "UniProt P30291", 22),
]

###

// values below are reported Inh. (%) of Wee1 kinase
Molecular target: Wee1 kinase (h) (Homo sapiens)
Assay: Wee1 kinase (h) detection method, [γ-33P]-ATP filter assay
Assay type: biochemical
Conditions: C 0.1 μm; 10 μM ATP; 40 minutes at room temperature
Protocol: Wee1 kinase (h) was incubated with 20 mM Tris/HCl pH 8.5, 0.2 mM EDTA, 500 μM […], 10 mM MgAcetate and 10 μM [γ-^33P]-ATP. Then the stock solution of all compounds under test with 50× concentration in 100% DMSO was added to make the final concentration of 1/0.1/0.01 μM, and then mixed the mixture well. The reaction was initiated by the addition of the Mg/ATP mix. […] The Wee1 inhibitor AZD1775 was detected at 10/0.01 μM at the same experiment condition.

# COMPOUND, Inh. (%) of Wee1 kinase
records = [
    ("Cc1cccc(Cl)c1-n1c(=O)c2cnc(Nc3ccc(N4CCN(C)CC4)c(Cl)c3)nc2c2nccn21 [Example 53]", 69),
    ("Cc1cc(Nc2ncc3c(=O)n(-c4c(Cl)cccc4Cl)n4ccnc4c3n2)ccc1N1CCN(C)CC1 [Example 3]", 76),
    ("Cc1cc(Nc2ncc3c(=O)n(-c4c(C)cccc4Cl)n4ccnc4c3n2)cc(C)c1N1CCN(C)CC1 [Example 17]", 56),
    ("Cc1cc(Nc2ncc3c(=O)n(-c4c(Cl)cccc4Cl)n4ccnc4c3n2)cc(Cl)c1N1CCN(C)CC1 [Example 29]", 65),
    ("CN1CCN(c2ccc(Nc3ncc4c(=O)n(-c5c(Cl)cccc5Cl)n5ccnc5c4n3)cc2)CC1 [Example 1]", 75),
]

###

Target: Wee1 kinase (h) (Homo sapiens)
Experiment: Wee1 kinase (h) detection method, [γ-33P]-ATP filter assay
Type: biochemical
Settings: C 0.01 μm; 10 μM ATP; 40 minutes at room temperature
Experimental: Wee1 kinase (h) was incubated with 20 mM Tris/HCl pH 8.5, 0.2 mM EDTA, 500 μM […], 10 mM MgAcetate and 10 μM [γ-^33P]-ATP. Then the stock solution of all compounds under test with 50× concentration in 100% DMSO was added to make the final concentration of 1/0.1/0.01 μM, and then mixed the mixture well. The reaction was initiated by the addition of the Mg/ATP mix. […] The Wee1 inhibitor AZD1775 was detected at 10/0.01 μM at the same experiment condition.
MEASURED_PARAMETER: Inh. (%) of Wee1 kinase

# ENTRY_SMILES, TEST_RESULT
data = [
    ("COc1cc(Nc2ncc3c(=O)n(-c4c(Cl)cccc4Cl)n4ccnc4c3n2)cc(Cl)c1N1CCC(N(C)C)CC1", 11),
    ("Cc1cc(Nc2ncc3c(=O)n(-c4c(Cl)cccc4Cl)n4ccnc4c3n2)cc2c1CCN(C)C2", 4),
    ("Cc1cc(Nc2ncc3c(=O)n(-c4c(Cl)cccc4Cl)n4ccnc4c3n2)cc(F)c1N1CCC(N(C)C)CC1", 13),
    ("Cc1cc(Nc2ncc3c(=O)n(-c4c(Cl)cccc4Br)n4ccnc4c3n2)ccc1N1CCN(C)CC1", 17),
    ("CN1CCN(c2ccc(Nc3ncc4c(=O)n(-c5c(Cl)cccc5Cl)n5ccnc5c4n3)cc2)CC1", 11),
    ("Cc1cc(Nc2ncc3c(=O)n(-c4c(Cl)cccc4Cl)n4ccnc4c3n2)ccc1N1CCN(C)CC1", 26),
    ("Cc1cc(Nc2ncc3c(=O)n(-c4c(C)cccc4Cl)n4ccnc4c3n2)cc(C)c1N1CCN(C)CC1", 5),
]

###

// values below are reported Inh. (%) of Wee1 kinase
Target: Wee1 kinase (h) (Homo sapiens, UniProt P30291)
Sequence (P30291 whole entry): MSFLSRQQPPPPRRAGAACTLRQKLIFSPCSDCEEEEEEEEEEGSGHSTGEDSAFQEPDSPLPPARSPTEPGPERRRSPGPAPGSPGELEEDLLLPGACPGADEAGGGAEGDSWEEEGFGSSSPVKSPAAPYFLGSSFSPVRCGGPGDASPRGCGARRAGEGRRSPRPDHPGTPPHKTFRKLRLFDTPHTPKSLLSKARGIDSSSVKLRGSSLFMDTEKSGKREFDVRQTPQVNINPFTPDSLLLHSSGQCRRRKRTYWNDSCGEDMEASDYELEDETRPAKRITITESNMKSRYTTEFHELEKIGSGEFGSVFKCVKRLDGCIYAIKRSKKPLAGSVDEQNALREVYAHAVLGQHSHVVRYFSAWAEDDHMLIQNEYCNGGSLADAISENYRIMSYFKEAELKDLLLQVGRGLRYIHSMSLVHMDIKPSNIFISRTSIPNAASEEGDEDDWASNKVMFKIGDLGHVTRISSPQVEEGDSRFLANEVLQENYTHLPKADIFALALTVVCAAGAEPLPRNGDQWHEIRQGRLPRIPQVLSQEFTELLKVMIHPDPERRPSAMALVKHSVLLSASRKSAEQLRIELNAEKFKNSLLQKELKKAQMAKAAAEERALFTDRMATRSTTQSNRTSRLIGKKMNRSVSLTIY
Experiment: Wee1 kinase (h) detection method, [γ-33P]-ATP filter assay
Type: biochemical
Details: C 1 μm; 10 μM ATP; 40 minutes at room temperature
MEASURED_PARAMETER: Inh. (%) of Wee1 kinase

# ENTRY_SMILES, UNIT_ABBREV, TEST_RESULT
measured = [
    ("Cc1cnc2c3nc(Nc4ccc(N5CCN(C)CC5)c(Cl)c4)ncc3c(=O)n(-c3c(Cl)cccc3Cl)n12", "%", 95),
    ("Cc1cc(Nc2ncc3c(=O)n(-c4c(F)cccc4Cl)n4ccnc4c3n2)cc(Cl)c1N1CCN(C)CC1", "%", 91),
    ("Cc1cn2c(n1)c1nc(Nc3ccc(N4CCN(C)CC4)c(Cl)c3)ncc1c(=O)n2-c1c(Cl)cccc1Cl", "%", 93),
    ("CN(C)C1CCN(c2ccc(Nc3ncc4c(=O)n(-c5c(Cl)cccc5Br)n5ccnc5c4n3)cc2Cl)CC1", "%", 93),
]
